assay: Metabolic stability test in liver S9; type: in vitro ADME; details: pH 7.4; unchanged form after 60 minutes at 37°C, human liver S9 2 mg protein/mL, LC/MS; read-out: Remaining rate in human liver S9 (%/60min)
readout-kind: remaining at 1 h (%)
Give bare numbers, in %.

| molecule | readout-unit | remaining at 1 h |
| --- | --- | --- |
| COC(=O)c1ccc(OC(=O)CCCc2ccc(NC(=O)c3ccncc3-c3ccc(C(F)(F)F)cc3)c(C(=O)N(C)C)c2)cc1 [Compound 1-30] | % | 0 |
| COC(=O)c1ccc(OC(=O)CCCc2ccc(NC(=O)c3ccccc3-c3ccc(C(F)(F)F)cc3)c(C(=O)N(C)C)c2)cc1OC [Compound 1-17] | % | 0 |

Please report remaining at 1 h for every entry that follows.
1. CCc1cc(C(=O)OC)cc(C(=O)OC)c1OC(=O)CCCc1ccc(NC(=O)c2ccc(C)nc2-c2ccc(C(F)(F)F)cc2)c(C(=O)N(C)C)c1 [Compound 1-51]
2. CCOC(=O)c1cc(C)c(OC(=O)CCCc2ccc(NC(=O)c3ccc(C)nc3-c3ccc(C(F)(F)F)cc3)c(C(=O)N(C)C)c2)c(Cl)c1 [Compound 1-112]
3. COC(=O)c1cc(C)c(OC(=O)CCCc2ccc(NC(=O)c3ccccc3-c3ccc(C(F)(F)F)cc3)c(C(=O)N(C)C)c2)c(Cl)c1 [Compound 1-34]
4. CN(C)C(=O)c1cc(CCCC(=O)Oc2ccc(C(=O)OCc3cccc(Cl)c3)cc2)ccc1NC(=O)c1ccccc1-c1ccc(C(F)(F)F)cc1 [Compound 1-87]

Result block:
3
8
4
2
